Cited source for all entries: patent US20250382376A1

assay.system: T1, CD73 on the surface of human cells (human, UniProt P21589 27-549)
T1 sequence (looked up): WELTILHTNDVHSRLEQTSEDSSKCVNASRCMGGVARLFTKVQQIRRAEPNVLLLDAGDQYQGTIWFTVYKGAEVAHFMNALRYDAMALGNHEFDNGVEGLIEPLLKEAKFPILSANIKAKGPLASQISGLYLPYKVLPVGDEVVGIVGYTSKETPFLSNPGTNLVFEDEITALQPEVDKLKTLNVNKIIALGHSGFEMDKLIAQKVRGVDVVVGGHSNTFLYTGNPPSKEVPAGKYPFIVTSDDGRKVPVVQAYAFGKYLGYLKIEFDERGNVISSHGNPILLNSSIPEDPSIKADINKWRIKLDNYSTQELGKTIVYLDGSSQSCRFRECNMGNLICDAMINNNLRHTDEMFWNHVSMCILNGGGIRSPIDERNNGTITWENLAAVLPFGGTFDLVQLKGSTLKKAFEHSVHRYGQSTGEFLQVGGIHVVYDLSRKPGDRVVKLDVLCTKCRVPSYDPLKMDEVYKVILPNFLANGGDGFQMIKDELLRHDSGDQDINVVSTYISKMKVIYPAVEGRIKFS
test.details: cell-based or functional assay
measured.parameter: EC50, reversal of the AMP inhibition of human T lymphocyte proliferation (µg/mL)

Below, each entry is followed by its recorded EC50, reversal of the AMP inhibition of human T lymphocyte proliferation result.
>>> result_number("humanized antibody fusion protein 3D7-HM9-ABD (VHH) VHH: QRQLVESGGGLVQPGGSLRLSCAASGFLLDYYVIGWFRQAPGKEREGVSCISGSDRSTYYADSVKGRFTISRDNAKNTVYLQMSSLRAEDTAVYYCAADPSPVTVQAMCLPRFPVPYWGKGTLVTVSS")
0.0467
>>> result_number("chimeric nanobody 5-E11 (Fc fusion, Human-alpaca chimeric antibody (VHH on hIgG1 Fc); Only the VHH is tied to the tested molecule; also called original antibody 5-E11) VHH: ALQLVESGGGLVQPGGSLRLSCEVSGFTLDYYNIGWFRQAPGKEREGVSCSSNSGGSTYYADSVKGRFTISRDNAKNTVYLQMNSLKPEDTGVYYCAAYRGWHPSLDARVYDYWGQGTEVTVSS")
0.0008
>>> result_number("humanized nanobody-drug conjugate 3D7-HM9-FC1-MMAE (Fc fusion, part only; not given: Fc segment and drug payload, part only, vc-MMAE on cysteines; expected DAR 4 for the dimer) VHH, part: QRQLVESGGGLVQPGGSLRLSCAASGFLLDYYVIGWFRQAPGKEREGVSCISGSDRSTYYADSVKGRFTISRDNAKNTVYLQMSSLRAEDTAVYYCAADPSPVTVQAMCLPRFPVPYWGKGTLVTVSS")
0.0197
>>> result_number("chimeric nanobody 3-D7 (Fc fusion, Human-alpaca chimeric antibody (VHH on hIgG1 Fc); Only the VHH is tied to the tested molecule; 37-39 exist for 3-D7-FC1/FC2/FC3; also called original antibody 3-D7) VHH: QRQLVESGGGLVQPGGSLRLSCAASGFLLDYYVIGWFRQAPGKEREGVSCISGSDRSTYYADSVKGRFTISRDNAKNTVYLQMNSLKPEDTAVYFCAADPSPVTVQAMCLPRFPVPYWGQGTQVTVST")
0.0247
>>> result_number("humanized antibody 3D7-HM9-FC1 (Fc fusion) heavy: QRQLVESGGGLVQPGGSLRLSCAASGFLLDYYVIGWFRQAPGKEREGVSCISGSDRSTYYADSVKGRFTISRDNAKNTVYLQMSSLRAEDTAVYYCAADPSPVTVQAMCLPRFPVPYWGKGTLVTVSSEPKSSDKTHTCPPCPAPEFEGGPSVFLFPPKPKDTLMISRTPEVTCVVVDVSHEDPEVKFNWYVDGVEVHNAKTKPREEQYNSTYRVVSVLTVLHQDWLNGKEYKCKVSNKALPASIEKTISKAKGQPREPQVYTLPPSRDELTKNQVSLTCLVKGFYPSDIAVEWESNGQPENNYKTTPPVLDSDGSFFLYSKLTVDKSRWQQGNVFSCSVMHEALHNHYTQKSLSLSPGK")
0.024

a = chimeric nanobody 4-B02 (Fc fusion, Human-alpaca chimeric antibody) VHH: EVQLVESGGGLVQPGGSLRLSCAASGFPLDYYSIGWFRQAPGKEREGVSCIGSSDGSTYYADSVKGRFTISRDNAENTVWLQMNSLKPEDTAVYYCAALKYYYCSGHEAIYDYWGQGTQVTVSG
b = chimeric nanobody 4-D04 (Fc fusion, Human-alpaca chimeric antibody) VHH: QLQLVESGGGLVQPGGSLRLSCAASGFTLDYYNIGWFRQAPGKEREGVSCISSSEGSTYYADSVKGRFTISRDNAKNTVYLQMNSLKPEDTAVYYCAADRYYYCSLHVSQYDYWGQGTLVTVSS
Task: When the recorded EC50, reversal of the AMP inhibition of human T lymphocyte proliferation values are compared, which is smaller: that of a or that of b ? Response format: the label of the selected entry.
Result: a
(a: 0.0012 µg/mL, b: 0.0025 µg/mL)
